Let's look at some compounds and their measured MIC50.
Tested on: Acinetobacter lwoffii
Test: Antimicrobial activity against Acinetobacter lwoffii clinical isolate after 18 to 22 hrs by broth microdilution method
Type: functional
Measure: MIC50 (µg/mL)

>>> value_reported("CO/N=C(\\C(=O)N[C@@H]1C(=O)N2C(C(=O)O)=C(CSc3nc(=O)c(O)nn3C)CS[C@H]12)c1csc(N)n1 [CEFTRIAXONE]")
2
>>> value_reported("C[C@@H](O)[C@H]1C(=O)N2C(C(=O)O)=C(SCCNC=N)C[C@H]12 [IMIPENEM ANHYDROUS]")
0.06
>>> value_reported("CCN1CCN(C(=O)N[C@@H](C(=O)N[C@@H]2C(=O)N3[C@@H]2SC(C)(C)[C@@H]3C(=O)O)c2ccccc2)C(=O)C1=O [PIPERACILLIN]")
4
>>> value_reported("C[C@H]1COc2c(N3CCN(C)CC3)c(F)cc3c(=O)c(C(=O)O)cn1c23.C[C@H]1COc2c(N3CCN(C)CC3)c(F)cc3c(=O)c(C(=O)O)cn1c23.O [LEVOFLOXACIN]")
0.12

* * *

Tested on: Citrobacter koseri
Test: Antimicrobial activity against Citrobacter koseri clinical isolate after 18 to 22 hrs by broth microdilution method
Type: functional
Let's look at some compounds and their measured MIC50.
Measure: MIC50 (mg/L)

>>> value_reported("C[C@@H](O)[C@H]1C(=O)N2C(C(=O)O)=C(SCCNC=N)C[C@H]12 [IMIPENEM ANHYDROUS]")
0.12
>>> value_reported("CCN1CCN(C(=O)N[C@@H](C(=O)N[C@@H]2C(=O)N3[C@@H]2SC(C)(C)[C@@H]3C(=O)O)c2ccccc2)C(=O)C1=O")
32
>>> value_reported("CO/N=C(\\C(=O)N[C@@H]1C(=O)N2C(C(=O)O)=C(CSc3nc(=O)c(O)nn3C)CS[C@H]12)c1csc(N)n1")
0.06
>>> value_reported("C[C@H]1COc2c(N3CCN(C)CC3)c(F)cc3c(=O)c(C(=O)O)cn1c23.C[C@H]1COc2c(N3CCN(C)CC3)c(F)cc3c(=O)c(C(=O)O)cn1c23.O")
0.03

* * *

System: Proteus vulgaris
Assay: Antimicrobial activity against Proteus vulgaris clinical isolate after 18 to 22 hrs by broth microdilution method
Assay type: functional
Measure: MIC90

>>> value_reported("CO/N=C(\\C(=O)N[C@@H]1C(=O)N2C(C(=O)O)=C(CSc3nc(=O)c(O)nn3C)CS[C@H]12)c1csc(N)n1")
"> 32 µg/mL"
>>> value_reported("C[C@H]1COc2c(N3CCN(C)CC3)c(F)cc3c(=O)c(C(=O)O)cn1c23.C[C@H]1COc2c(N3CCN(C)CC3)c(F)cc3c(=O)c(C(=O)O)cn1c23.O")
"0.12 µg/mL"
>>> value_reported("CCN1CCN(C(=O)N[C@@H](C(=O)N[C@@H]2C(=O)N3[C@@H]2SC(C)(C)[C@@H]3C(=O)O)c2ccccc2)C(=O)C1=O")
"> 128 µg/mL"
>>> value_reported("C[C@@H](O)[C@H]1C(=O)N2C(C(=O)O)=C(SCCNC=N)C[C@H]12 [IMIPENEM ANHYDROUS]")
"4 µg/mL"

* * *

System: Staphylococcus aureus
Assay: Antimicrobial activity against methicillin-susceptible Staphylococcus aureus clinical isolate after 18 to 22 hrs by broth microdilution method
Type: functional
Measure: MIC50 (µg/mL)

>>> value_reported("CC(=O)NC[C@H]1CN(c2ccc(N3CCOCC3)c(F)c2)C(=O)O1")
4
>>> value_reported("C[C@H]1COc2c(N3CCN(C)CC3)c(F)cc3c(=O)c(C(=O)O)cn1c23.C[C@H]1COc2c(N3CCN(C)CC3)c(F)cc3c(=O)c(C(=O)O)cn1c23.O")
0.25
>>> value_reported("CCN1CCN(C(=O)N[C@@H](C(=O)N[C@@H]2C(=O)N3[C@@H]2SC(C)(C)[C@@H]3C(=O)O)c2ccccc2)C(=O)C1=O")
64
>>> value_reported("CN[C@H](CC(C)C)C(=O)N[C@H]1C(=O)N[C@@H](CC(N)=O)C(=O)N[C@H]2C(=O)N[C@H]3C(=O)N[C@H](C(=O)N[C@H](C(=O)O)c4cc(O)cc(O)c4-c4cc3ccc4O)[C@H](O)c3ccc(c(Cl)c3)Oc3cc2cc(c3O[C@@H]2O[C@H](CO)[C@@H](O)[C@H](O)[C@H]2O[C@H]2C[C@](C)(N)[C@H](O)[C@H](C)O2)Oc2ccc(cc2Cl)[C@H]1O")
0.5
